Data credit: patent US20240262842A1

# Tested on: MIA PaCa-2 cells
# EXPERIMENT_NOTES: Growth inhibition activity on KRAS-G12C mutant cell line (CellTiter-Glo 3D)
# Type: cell-based, human
# TEST_CONTEXT: Homo sapiens, MIA PaCa-2, 72 h, MIA PaCa-2, 3-day culture with compound; Table 3-1
# Method: MIA PaCa-2 cells (given by Sumitomo Dainippon Pharma Co., Ltd.), which are a KRAS-G12C mutant human pancreas cancer cell line, were suspended in a 10% fetal bovine serum-containing RPMI1640 medium (manufactured by Fujifilm Wako Pure Chemical Corporation). […] The cell count after 3-day culture in the presence of the test compound was measured using CellTiter-Glo 3D Reagent (manufactured by Promega Corporation). […] 30 minutes after mixing, luminescence was measured by a plate reader. […]
EXPERIMENTAL_READOUT: pIC50
Numbers only, as −log10 of the molar value.

Illustrative cases are given below, each with its answer.
COMPOUND	MEASURED_RESULT
Cn1cnc2c3c(c(C(F)(F)F)cc21)-c1cccn2c(C(=O)c4cc(F)c(NC(=O)/C=C/CN5C6CCC5COC6)c(F)c4)cc(c12)CCO3	7.96
COCc1nc2c3c(c(C(F)F)cc2n1C)-c1cccn2c(C(=O)c4cc(F)c(NC(=O)/C=C/CNC5(C)COC5)c(F)c4)cc(c12)CCN3C	7.75
CN1CCc2cc(C(=O)c3cc(F)c(NC(=O)/C=C/CN4C[C@@H]5C[C@H]4CO5)c(F)c3)n3cccc(c23)-c2c(C(F)(F)F)cc3c(ncn3C)c21	7.94
CN1CCc2cc(C(=O)c3cc(F)c(NC(=O)/C=C/CN4[C@@H]5CC[C@H]4[C@H](O)C5)c(F)c3)n3cccc(c23)-c2c(C(F)(F)F)cc3c(ncn3C)c21 (single isomer, unassigned)	7.99
COCCn1c(COC)nc2c3c(c(OC)cc21)-c1cccn2c(C(=O)c4cc(F)c(NC(=O)/C=C/CNC5(C)CC5)c(F)c4)cc(c12)CCN3C (single isomer, unassigned)	8.00

Quick batch: pIC50 for everything below.
1. CO[C@H]1CC[C@H](NC/C=C/C(=O)Nc2c(F)cc(C(=O)c3c(C)c4c5c(cccn35)-c3c(C(F)(F)F)cc5c(nc(C)n5C)c3OCC4)cc2F)CC1 (single isomer, unassigned)
2. COc1cc2c(nc(C)n2C)c2c1-c1cccn3c(C(=O)c4cc(F)c(NC(=O)/C=C/CNC(C)(C)CF)c(F)c4)cc(c13)CCN2C

[7.96, 7.29]
